# MEASURED TARGET: Voltage-gated L-type calcium channel (Homo sapiens, UniProt O60840+Q01668+Q13698+Q13936)
# PROCEDURE SUMMARY: Inhibition of Calcium channel L-type (unknown origin) at 10 uM in presence of dihydropyridine relative to control
# Assay type: protein assay
# CONDITION SUMMARY: probe dihydropyridine
MEASURED PARAMETER: inhibition at 10 µM (%)
# value in %; strip the unit string

Voltage-gated L-type calcium channel (Homo sapiens, UniProt O60840+Q01668+Q13698+Q13936) data for `Cc1cc(-n2nc(Cc3cc(F)cc(C(F)(F)F)c3)nc2C)ccc1C(N)=O` ; its inhibition at 10 µM: -2

====

# MEASURED TARGET: G-protein coupled receptor 52 (Homo sapiens)
# Sequence (Q9Y2T5 whole entry): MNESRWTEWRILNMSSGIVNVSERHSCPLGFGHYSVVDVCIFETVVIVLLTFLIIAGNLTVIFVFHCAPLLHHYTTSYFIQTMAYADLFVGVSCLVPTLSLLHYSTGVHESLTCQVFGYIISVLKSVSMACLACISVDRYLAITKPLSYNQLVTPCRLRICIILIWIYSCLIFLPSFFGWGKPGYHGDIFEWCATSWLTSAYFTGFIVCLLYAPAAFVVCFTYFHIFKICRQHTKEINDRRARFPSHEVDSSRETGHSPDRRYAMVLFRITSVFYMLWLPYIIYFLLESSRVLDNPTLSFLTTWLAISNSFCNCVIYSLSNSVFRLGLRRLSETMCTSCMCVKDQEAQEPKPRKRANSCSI
# PROCEDURE SUMMARY: Agonist activity at human GPR52 expressed in CHO cells assessed as increase in intracellular cAMP level incubated for 30 mins by Alphascreen assay
MEASURED PARAMETER: pEC50
As a rule, pEC50 stands for the negative log10 of the concentration, concentration in M.

So, Cc1cc(-n2nc(Cc3cc(F)cc(C(F)(F)F)c3)nc2C)ccc1C(N)=O [TP-024] ? Its pEC50 was 7.03

====

# MEASURED TARGET: UniProtKB A0A8I5ZQK1
# Sequence (A0A8I5ZQK1 whole entry): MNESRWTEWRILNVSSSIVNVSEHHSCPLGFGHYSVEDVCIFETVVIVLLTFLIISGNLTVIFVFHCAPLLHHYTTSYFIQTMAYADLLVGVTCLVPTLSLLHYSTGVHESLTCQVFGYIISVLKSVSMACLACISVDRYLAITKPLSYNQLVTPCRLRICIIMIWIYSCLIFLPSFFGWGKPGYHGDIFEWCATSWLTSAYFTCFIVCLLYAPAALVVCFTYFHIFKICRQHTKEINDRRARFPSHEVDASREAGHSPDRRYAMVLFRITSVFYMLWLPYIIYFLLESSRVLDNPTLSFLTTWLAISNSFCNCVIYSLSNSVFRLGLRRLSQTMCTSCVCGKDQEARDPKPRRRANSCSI
# PROCEDURE SUMMARY: Agonist activity at rat GPR52 expressed in CHO cells assessed as increase in intracellular cAMP level incubated for 30 mins by Alphascreen assay
# Type: cell-based
MEASURED PARAMETER: pEC50
pEC50 field: float, defined as -log10 of concentration (mol/L).

Form field pEC50, entry Cc1cc(-n2nc(Cc3cc(F)cc(C(F)(F)F)c3)nc2C)ccc1C(N)=O [TP-024] : 6.87

====

# MEASURED TARGET: Voltage-gated L-type calcium channel (Homo sapiens, UniProt O60840+Q01668+Q13698+Q13936)
# PROCEDURE SUMMARY: Inhibition of Calcium channel L-type (unknown origin) at 10 uM in presence of phenylalkylamine relative to control
# Assay type: protein assay
# CONDITION SUMMARY: probe phenylalkylamine
MEASURED PARAMETER: inhibition at 10 µM
Record the result as number plus unit.

Record Cc1cc(-n2nc(Cc3cc(F)cc(C(F)(F)F)c3)nc2C)ccc1C(N)=O [TP-024] has Voltage-gated L-type calcium channel (Homo sapiens, UniProt O60840+Q01668+Q13698+Q13936) inhibition at 10 µM equal to -6%

====

# MEASURED TARGET: G-protein coupled receptor 52 (Mus musculus, UniProt P0C5J4)
# Sequence (P0C5J4 whole entry): as the sequence (A0A8I5ZQK1 whole entry) above, with V14M, D250E, Q333E, G342A, R348Q counted along it
# PROCEDURE SUMMARY: Agonist activity at mouse GPR52 expressed in CHO cells assessed as increase in intracellular cAMP level incubated for 30 mins by Alphascreen assay
MEASURED PARAMETER: EC50
Field note: include the unit after the figure.

EC50 reading for `Cc1cc(-n2nc(Cc3cc(F)cc(C(F)(F)F)c3)nc2C)ccc1C(N)=O` : 141 nM

====

# MEASURED TARGET: MAO-A (amine oxidase [flavin-containing] A) (Homo sapiens)
# Sequence (P21397 whole entry): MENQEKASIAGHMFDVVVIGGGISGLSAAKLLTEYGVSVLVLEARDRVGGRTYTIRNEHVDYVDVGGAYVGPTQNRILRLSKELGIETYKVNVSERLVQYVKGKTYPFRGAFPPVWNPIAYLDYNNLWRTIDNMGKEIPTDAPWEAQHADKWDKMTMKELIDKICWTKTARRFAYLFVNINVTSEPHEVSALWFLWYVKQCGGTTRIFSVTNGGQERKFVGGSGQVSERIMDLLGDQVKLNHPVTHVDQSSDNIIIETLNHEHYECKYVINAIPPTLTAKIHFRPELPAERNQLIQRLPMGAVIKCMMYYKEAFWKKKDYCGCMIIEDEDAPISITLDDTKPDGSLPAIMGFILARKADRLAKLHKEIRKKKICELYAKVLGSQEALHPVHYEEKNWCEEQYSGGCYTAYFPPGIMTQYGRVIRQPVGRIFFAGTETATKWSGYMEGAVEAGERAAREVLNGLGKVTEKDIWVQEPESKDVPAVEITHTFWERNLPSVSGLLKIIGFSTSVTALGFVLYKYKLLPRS
# PROCEDURE SUMMARY: Inhibition of MAO-A (unknown origin) at 10 uM relative to control
MEASURED PARAMETER: inhibition at 10 µM
For clarity, give the value followed by its unit.

For record Cc1cc(-n2nc(Cc3cc(F)cc(C(F)(F)F)c3)nc2C)ccc1C(N)=O [TP-024] the listed inhibition at 10 µM is 6%
